Could you please report measured IC50 for the items listed next?
System: AsPC-1 (G12D) cells
Test: Cell viability assay (CELLTITER-GLO), AsPC-1 cells
Format: cell-based
Conditions: Homo sapiens, ASPC1, 72 h, 3 days incubation, 2.5% fetal bovine serum, read-out: Inhibition of Cancerous Cells IC50 (μM) AsPC-1 (G12D)
All answers are understood in µM, so give the number only.

*Q* State its IC50 for this compound: "Cc1nn2c(N3CCN(CCO)CC3)cc(-c3ccccc3)nc2c1-c1cccc(CCCCCCCCCN2CCN(C(=O)COc3cccc(N4CCC(=O)NC4=O)c3)CC2)c1"
*A* 1

*Q* Identify IC50 associated with the compound Cc1nn2c(N3CCN(CCO)CC3)cc(-c3ccccc3)nc2c1-c1cccc(CCCCCCCN2CCN(C(=O)CNc3cccc4c(C5CCC(=O)NC5=O)nn(C)c34)CC2)c1 (stereo not shown)
*A* 1.4

*Q* Look up and state reported IC50 for "Cc1nn2c(N3CCN(CCO)CC3)cc(-c3ccccc3)nc2c1-c1cccc(CCCCCN2CCN(C(=O)COc3ccc(N4CCC(=O)NC4=O)cc3)CC2)c1"
*A* 0.91

*Q* Look up and report measured IC50 for this entry: Cc1nn2c(N3CCN(CCO)CC3)cc(-c3ccccc3)nc2c1-c1cccc(CCCCCN2CCN(C(=O)CNc3ccc4c(C5CCC(=O)NC5=O)nn(C)c4c3)CC2)c1 (stereo not shown)
*A* 1.3

*Q* For the compound "Cc1nn2c(N3CCN(CCO)CC3)cc(-c3ccccc3)nc2c1-c1cccc(CCCN2CCN(C(=O)CNc3ccc4c(N5CCC(=O)NC5=O)nn(C)c4c3)CC2)c1" , report IC50.
*A* 2.3

*Q* Kindly indicate its recorded IC50. Item: Cc1nn2c(N3CCN(CCO)CC3)cc(-c3ccccc3)nc2c1-c1cccc(CCCN2CCN(C(=O)CNc3cccc4c(C5CCC(=O)NC5=O)nn(C)c34)CC2)c1 (stereo not shown)
*A* 1.4

*Q* Give recorded IC50. "Cc1nn2c(N3CCN(CCO)CC3)cc(-c3ccccc3)nc2c1-c1cccc(CCCCCCCN2CCN(C(=O)COc3ccc(N4CCC(=O)NC4=O)cc3)CC2)c1"
*A* 1.1

*Q* Kindly indicate its recorded IC50. Item: "Cc1nn2c(N3CCN(CCO)CC3)cc(-c3ccccc3)nc2c1-c1cccc(CCCCCCCN2CCN(C(=O)CNc3ccc4c(N5CCC(=O)NC5=O)nn(C)c4c3)CC2)c1"
*A* 1.4

*Q* Please list IC50 recorded for the compound "Cc1nn2c(N3CCN(CCO)CC3)cc(-c3ccccc3)nc2c1-c1cccc(CCCCCCCCCN2CCN(C(=O)COc3ccc(N4CCC(=O)NC4=O)cc3)CC2)c1"
*A* 0.96

*Q* Return IC50 (reported value) for this compound: Cc1nn2c(N3CCN(CCO)CC3)cc(-c3ccccc3)nc2c1-c1cccc(CCCCCN2CCN(C(=O)CNc3cccc4c(C5CCC(=O)NC5=O)nn(C)c34)CC2)c1 (stereo not shown)
*A* 1.4

*Q* Answer with the recorded IC50 for the compound listed here: "Cc1nn2c(N3CCN(CCO)CC3)cc(-c3ccccc3)nc2c1-c1cccc(CCCCCCCN2CCN(C(=O)COc3cccc(N4CCC(=O)NC4=O)c3)CC2)c1"
*A* 1.2

*Q* Give me measured IC50, please, for this compound: Cc1nn2c(N3CCN(CCO)CC3)cc(-c3ccccc3)nc2c1-c1cccc(CCCN2CCN(C(=O)CNc3ccc4c(C5CCC(=O)NC5=O)nn(C)c4c3)CC2)c1 (stereo not shown)
*A* 1.3

*Q* Please list IC50 recorded for the compound Cc1nn2c(N3CCN(CCO)CC3)cc(-c3ccccc3)nc2c1-c1cccc(CCCCCCCN2CCN(C(=O)CNc3ccc4c(C5CCC(=O)NC5=O)nn(C)c4c3)CC2)c1 (stereo not shown)
*A* 1.3
